Source of measurements: patent US6133292A

Target: COX-1 (Homo sapiens, UniProt P23219)
Sequence (P23219 24-599): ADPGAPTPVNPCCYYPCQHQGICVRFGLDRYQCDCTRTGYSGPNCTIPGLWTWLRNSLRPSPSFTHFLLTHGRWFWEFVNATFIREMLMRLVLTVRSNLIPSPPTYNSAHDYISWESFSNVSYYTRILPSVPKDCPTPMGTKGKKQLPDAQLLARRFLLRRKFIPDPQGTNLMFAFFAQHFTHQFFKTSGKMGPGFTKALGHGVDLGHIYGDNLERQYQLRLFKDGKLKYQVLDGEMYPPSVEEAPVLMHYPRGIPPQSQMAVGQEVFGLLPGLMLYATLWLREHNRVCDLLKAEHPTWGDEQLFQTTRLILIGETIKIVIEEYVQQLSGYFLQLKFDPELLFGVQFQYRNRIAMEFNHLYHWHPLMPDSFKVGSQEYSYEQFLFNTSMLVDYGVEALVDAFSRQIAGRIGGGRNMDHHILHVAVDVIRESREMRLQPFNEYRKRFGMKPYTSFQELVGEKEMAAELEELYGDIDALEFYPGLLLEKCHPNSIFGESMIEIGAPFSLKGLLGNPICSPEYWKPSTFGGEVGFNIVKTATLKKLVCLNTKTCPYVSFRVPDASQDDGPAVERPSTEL
Experiment: Human whole blood assay, COX-1 (clotting-induced TxB2 production)
Format: cell-based
Set-up: platelets in whole blood contain a large amount of the COX-1 enzyme; from tissue; host or cells: fresh human whole blood without anticoagulant, platelets
Conditions: clotting-induced TxB2, 1 hour at 37° C, read-out: HWB Cox-1 (IC50)
Assign labels as follows, please: condition met for IC50 below 50 µM; condition not met for IC50 equal to or exceeding 50 µM.

Query: Lab note: IC50 threshold 50 µM. Does this compound come in strictly under it? CC[C@@]1(C)OC(=O)C(c2ccc(F)c(F)c2)=C1c1ccc(S(C)(=O)=O)cc1
Response: condition not met

Query: Strictly below 50 µM in IC50? CC[C@]1(C)OC(=O)C(c2ccc(F)c(F)c2)=C1c1ccc(S(C)(=O)=O)cc1
Response: condition met

Query: Field: below-cutoff. Rule: recorded IC50 strictly less than 50 µM. Subject: CCCC1(C)OC(=O)C(c2ccc(F)cc2)=C1c1ccc(S(C)(=O)=O)cc1 (stereo not shown)
Response: condition not met

Query: Below 50 µM on IC50? Entry CC[C@]1(C)OC(=O)C(c2ccc(F)cc2)=C1c1ccc(S(C)(=O)=O)cc1
Response: condition met

Query: Determine whether this compound shows IC50 lower than 50 µM (ties excluded): CC1(C)OC(=O)C(c2ccc(F)cc2)=C1c1ccc(S(C)(=O)=O)cc1 [Compound T3-1, reference compound]
Response: condition not met

Query: A record lists CC[C@@]1(C)OC(=O)C(c2ccc(F)cc2)=C1c1ccc(S(C)(=O)=O)cc1 . Is its IC50 below 50 µM?
Response: condition met

* * *

Please go through the items and note down their IC50.
Molecular target: COX-2 (Homo sapiens, UniProt P35354)
Sequence (P35354 18-604): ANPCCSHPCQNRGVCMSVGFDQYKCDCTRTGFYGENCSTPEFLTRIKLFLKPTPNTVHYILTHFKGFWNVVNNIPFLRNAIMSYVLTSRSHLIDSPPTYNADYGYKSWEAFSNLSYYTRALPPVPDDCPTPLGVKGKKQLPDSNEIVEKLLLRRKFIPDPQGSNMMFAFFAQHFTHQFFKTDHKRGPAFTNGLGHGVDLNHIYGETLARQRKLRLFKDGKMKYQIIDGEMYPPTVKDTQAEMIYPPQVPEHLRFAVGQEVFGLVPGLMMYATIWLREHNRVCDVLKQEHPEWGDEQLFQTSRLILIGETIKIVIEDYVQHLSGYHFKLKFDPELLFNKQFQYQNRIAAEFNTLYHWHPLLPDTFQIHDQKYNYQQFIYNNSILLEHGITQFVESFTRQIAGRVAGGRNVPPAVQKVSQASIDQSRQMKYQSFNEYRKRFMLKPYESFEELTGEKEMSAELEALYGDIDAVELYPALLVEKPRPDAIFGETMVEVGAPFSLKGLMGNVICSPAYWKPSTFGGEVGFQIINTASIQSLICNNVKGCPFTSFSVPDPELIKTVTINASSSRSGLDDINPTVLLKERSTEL
Assay: Human whole blood assay, COX-2 (LPS-induced PGE2 production)
Type: cell-based
Parameters: incubation of human whole blood with LPS, which induces COX-2; from tissue; host or cells: fresh heparinized human whole blood from male and female volunteers, LPS-stimulated
Conditions: 24 hours at 37° C, read-out: HWB Cox-2 (IC50, inhibition of PGE2 production)
Quick note: give the figure in nM, leave out the unit.

Query: # lookup: IC50 of CCCC1(C)OC(=O)C(c2ccc(F)c(F)c2)=C1c1ccc(S(C)(=O)=O)cc1 (stereo not shown)
Response: 2440

Query: Field request: IC50 | item: CC[C@@]1(C)OC(=O)C(c2ccc(F)cc2)=C1c1ccc(S(C)(=O)=O)cc1
Response: 130

Query: Value lookup for IC50; key = CCC1(C)OC(=O)C(c2cccc(F)c2)=C1c1ccc(S(C)(=O)=O)cc1 (stereo not shown)
Response: 480

Query: Report IC50 for CCC1(C)OC(=O)C(c2ccc(F)cc2)=C1c1ccc(S(C)(=O)=O)cc1 (stereo not shown) please.
Response: 590

Query: # input compound: CC[C@@]1(C)OC(=O)C(c2ccc(F)c(F)c2)=C1c1ccc(S(C)(=O)=O)cc1 ; wanted: its IC50
Response: 1550

Query: Could you share which IC50 value was measured for CC[C@]1(C)OC(=O)C(c2ccc(F)c(F)c2)=C1c1ccc(S(C)(=O)=O)cc1 ?
Response: 530

Query: Entry CCCC1(C)OC(=O)C(c2ccc(F)cc2)=C1c1ccc(S(C)(=O)=O)cc1 (stereo not shown) has what IC50?
Response: 2510

Query: Looking for the measured IC50 of CC[C@]1(C)OC(=O)C(c2ccc(F)cc2)=C1c1ccc(S(C)(=O)=O)cc1 , can you help?
Response: 310

Query: Would you mind telling me what IC50 value was observed for CCCC1(C)OC(=O)C(c2cccc(F)c2)=C1c1ccc(S(C)(=O)=O)cc1 (stereo not shown) ?
Response: 3550

Query: // returns reported IC50 for input CCC1(CC)OC(=O)C(c2ccc(F)cc2)=C1c1ccc(S(C)(=O)=O)cc1 [u, reference compound]
Response: 13900

Query: Which IC50 value belongs to CCC1(CC)OC(=O)C(c2ccccc2)=C1c1ccc(S(C)(=O)=O)cc1 [t, reference compound] ?
Response: 12200
